Biological target: Fes (UniProt P07332)
Sequence (P07332 whole entry, looked up): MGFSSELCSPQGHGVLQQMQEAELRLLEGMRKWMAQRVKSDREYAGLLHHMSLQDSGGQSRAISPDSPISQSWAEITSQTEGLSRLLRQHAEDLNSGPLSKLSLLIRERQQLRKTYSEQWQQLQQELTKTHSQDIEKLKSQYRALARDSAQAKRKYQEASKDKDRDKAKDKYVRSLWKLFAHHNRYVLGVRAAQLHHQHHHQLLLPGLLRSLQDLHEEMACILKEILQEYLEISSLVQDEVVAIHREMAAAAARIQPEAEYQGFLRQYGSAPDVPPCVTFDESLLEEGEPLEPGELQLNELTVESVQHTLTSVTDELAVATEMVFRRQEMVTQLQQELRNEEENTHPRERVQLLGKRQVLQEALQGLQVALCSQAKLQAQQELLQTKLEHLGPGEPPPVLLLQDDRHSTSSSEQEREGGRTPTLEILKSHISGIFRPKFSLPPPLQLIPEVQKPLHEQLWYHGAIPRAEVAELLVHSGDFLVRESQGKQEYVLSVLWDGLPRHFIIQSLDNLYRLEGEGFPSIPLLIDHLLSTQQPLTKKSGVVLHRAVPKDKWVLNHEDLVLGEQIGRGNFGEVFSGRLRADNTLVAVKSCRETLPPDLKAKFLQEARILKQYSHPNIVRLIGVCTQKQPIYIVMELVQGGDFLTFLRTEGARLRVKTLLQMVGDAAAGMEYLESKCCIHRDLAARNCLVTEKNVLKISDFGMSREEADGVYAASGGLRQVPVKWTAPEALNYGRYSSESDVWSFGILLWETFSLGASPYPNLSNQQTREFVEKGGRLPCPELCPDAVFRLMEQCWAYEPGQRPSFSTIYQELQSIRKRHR
Experiment: phosphorylation enrichment, bacterial display (enrichment ratio); higher = better substrate or ligand; peptides without Tyr show the background;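 also: 11-residue human phosphosite peptides and single-mutation variants displayed on the E. coli surface, counted by deep sequencing, each peptide's frequency after selection divided by its frequency in the unselected input library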;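 also: frequency after pTyr selection over input frequency; kinase dosed for 20-30% of maximal phosphorylation in three min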
Listing of recorded phosphorylation enrichment by entry.
Give a plain numeric answer without units written out.

Illustrative cases are given below, each with its answer.
orderedResidues	readoutValue
SVKVYYKKCWF [EPHA7_Y202_S207F]	1.14
HNVPIYEGFAL [ACTA1_Y168_YF]	7.74
CKLVDYDSARH [BIN1_Y150_R145C]	0.909

Now let's try a different one.
Briefly, phosphorylation enrichment measured for GQKTLYSFFSP [UNG_Y8] : 1.2

====

Molecular target: FGFR3 (UniProt P22607)
Sequence (P22607 whole entry, looked up): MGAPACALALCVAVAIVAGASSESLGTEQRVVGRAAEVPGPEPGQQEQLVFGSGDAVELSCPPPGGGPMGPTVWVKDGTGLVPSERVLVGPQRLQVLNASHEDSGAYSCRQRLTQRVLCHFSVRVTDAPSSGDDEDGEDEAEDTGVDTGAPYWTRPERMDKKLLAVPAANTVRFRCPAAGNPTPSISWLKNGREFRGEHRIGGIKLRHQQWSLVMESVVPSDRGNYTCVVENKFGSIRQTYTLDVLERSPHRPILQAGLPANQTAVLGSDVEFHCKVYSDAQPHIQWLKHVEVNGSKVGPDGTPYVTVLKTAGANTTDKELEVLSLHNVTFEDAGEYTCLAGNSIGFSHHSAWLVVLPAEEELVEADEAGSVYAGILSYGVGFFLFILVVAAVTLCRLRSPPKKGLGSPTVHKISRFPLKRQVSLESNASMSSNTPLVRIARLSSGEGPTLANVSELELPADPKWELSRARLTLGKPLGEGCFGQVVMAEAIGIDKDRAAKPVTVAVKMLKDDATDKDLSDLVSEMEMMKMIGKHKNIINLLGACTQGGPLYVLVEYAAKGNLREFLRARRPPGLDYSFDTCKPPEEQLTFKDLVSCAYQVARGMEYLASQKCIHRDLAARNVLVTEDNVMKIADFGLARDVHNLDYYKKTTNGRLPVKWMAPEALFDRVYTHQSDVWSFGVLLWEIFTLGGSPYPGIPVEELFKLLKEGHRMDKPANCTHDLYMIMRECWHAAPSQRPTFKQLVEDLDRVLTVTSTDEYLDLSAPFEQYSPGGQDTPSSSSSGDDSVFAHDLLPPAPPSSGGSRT
Assay: phosphorylation enrichment, bacterial display (enrichment ratio); higher = better substrate or ligand; peptides without Tyr show the background
measuredQuantity: phosphorylation enrichment
// response body must contain only the number

Worked examples, 3 sequences total:
orderedResidues	measuredQuantity	readoutValue
HNLDFYKKTTN [FGFR3_Y648_YF]	phosphorylation enrichment	1.68
NVDGKYSFLKV [GRM3_Y478_G475D_YF]	phosphorylation enrichment	0.505
EEGNPYFSSAR [MCCC2_Y520_YF]	phosphorylation enrichment	0.648

Would you kindly look at the next entry?
Lab note: IEDPYYGNDSD [ACP1_Y133] gave phosphorylation enrichment of 1.09
